Data provenance is patent US20200079833A1.

# Study System: GLP-1 receptor (GLP-1R), primary cAMP assay cell line (human, UniProt P43220 24-463)
# Assay Procedure: cell-based or functional assay
Starred links: 1 amine or outer side, 2 acyl side, 3 side chain; linkers in the order of their positions; H or OH if unused. Non-standard residues stand in square brackets, D forms with d. Groups on a side chain read outwards from the residue. Primed or numbered codes have the meaning given here. No end group written: not given here. *: point of attachment. γGlu = O=C(O)[C@H](CCC(=O)[*:2])N[*:1]; αMeF = C[C@](N)(Cc1ccccc1)C(=O)O; αMeK = C[C@](N)(CCCCN)C(=O)O; Lauroyl = CCCCCCCCCCCC(=O)*; αMeS = C[C@](N)(CO)C(=O)O; PEG2′ = not defined here; Aib = CC(C)(N)C(=O)O
Recorded Endpoint: cAMP Primary assay EC50, n2 (nM)
Answers are plain numbers, in nM.

Known cAMP Primary assay EC50, n2 results, listed for orientation:
H[Aib]EGS[αMeF]TSDVSK([PEG2′-PEG2′-γGlu-Lauroyl])YLEK([PEG2′-PEG2′-γGlu-Lauroyl])EAA[αMeK]EFIK([PEG2′-PEG2′-γGlu-Lauroyl])FVVEGG-NH2 [SEQ ID NO: 443] ... 0.254
H[Aib]EGS[αMeF]TSDV[αMeS]SYK([PEG2′-PEG2′-γGlu-Lauroyl])EK([PEG2′-PEG2′-γGlu-Lauroyl])EAA[αMeK]EFIAFK([PEG2′-PEG2′-γGlu-Lauroyl])VEGG-NH2 [SEQ ID NO: 483] ... 0.258
H[Aib]EGS[αMeF]TSDVSK([PEG2′-PEG2′-γGlu-Lauroyl])YLEGK([PEG2′-PEG2′-γGlu-Lauroyl])AA[αMeK]EFIAFK([PEG2′-PEG2′-γGlu-Lauroyl])VEGG-NH2 [SEQ ID NO: 476] ... 0.257
H[Aib]EGS[αMeF]TSDV[αMeS]SK([PEG2′-PEG2′-γGlu-Lauroyl])LEGEK([PEG2′-PEG2′-γGlu-Lauroyl])A[αMeK]EFIK([PEG2′-PEG2′-γGlu-Lauroyl])FVVEGG-NH2 [SEQ ID NO: 449] ... 0.276
H[Aib]EGS[αMeF]TSDV[αMeS]SK([PEG2′-PEG2′-γGlu-Lauroyl])LEGK([PEG2′-PEG2′-γGlu-Lauroyl])AA[αMeK]EFIAK([PEG2′-PEG2′-γGlu-Lauroyl])VVEGG-NH2 [SEQ ID NO: 464] ... 0.0351

For the 7 binders below, give their cAMP Primary assay EC50, n2 values.
1. H[Aib]EGS[αMeF]TSDV[αMeS]SK([PEG2′-PEG2′-γGlu-Lauroyl])LEK([PEG2′-PEG2′-γGlu-Lauroyl])EAA[αMeK]EFIAK([PEG2′-PEG2′-γGlu-Lauroyl])VVEGG-NH2 [SEQ ID NO: 463]
2. H[Aib]EGS[αMeF]TSDVSK([PEG2′-PEG2′-γGlu-Lauroyl])YLEGEAA[αMeK]K([PEG2′-PEG2′-γGlu-Lauroyl])FIK([PEG2′-PEG2′-γGlu-Lauroyl])FVVEGG-NH2 [SEQ ID NO: 446]
3. H[Aib]EGS[αMeF]TSDV[αMeS]SYK([PEG2′-PEG2′-γGlu-Lauroyl])EGEK([PEG2′-PEG2′-γGlu-Lauroyl])A[αMeK]EFIAFK([PEG2′-PEG2′-γGlu-Lauroyl])VEGG-NH2 [SEQ ID NO: 485]
4. H[Aib]EGS[αMeF]TSDVSK([PEG2′-PEG2′-γGlu-Lauroyl])YLEK([PEG2′-PEG2′-γGlu-Lauroyl])EAA[αMeK]EFIAFK([PEG2′-PEG2′-γGlu-Lauroyl])VEGG-NH2 [SEQ ID NO: 475]
5. H[Aib]EGS[αMeF]TSDK([PEG2′-PEG2′-γGlu-Lauroyl])SSYLEK([PEG2′-PEG2′-γGlu-Lauroyl])EAA[αMeK]EFIK([PEG2′-PEG2′-γGlu-Lauroyl])FVVEGG-NH2 [SEQ ID NO: 439]
6. H[Aib]EGS[αMeF]TSDVSK([PEG2′-PEG2′-γGlu-Lauroyl])YLEK([PEG2′-PEG2′-γGlu-Lauroyl])EAA[αMeK]EFIAK([PEG2′-PEG2′-γGlu-Lauroyl])VVEGG-NH2 [SEQ ID NO: 459]
7. H[Aib]EGS[αMeF]TSDVSK([PEG2′-PEG2′-γGlu-Lauroyl])YLEGEK([PEG2′-PEG2′-γGlu-Lauroyl])A[αMeK]EFIK([PEG2′-PEG2′-γGlu-Lauroyl])FVVEGG-NH2 [SEQ ID NO: 445]

Reply text:
1. 0.0944
2. 0.127
3. 0.224
4. 0.347
5. 0.134
6. 0.111
7. 0.277

Batch lookup, cAMP Primary assay EC50, n2 per entry.
1. H[Aib]EGS[αMeF]TSDK([PEG2′-PEG2′-γGlu-Lauroyl])SSYLEGK([PEG2′-PEG2′-γGlu-Lauroyl])AA[αMeK]EFIAK([PEG2′-PEG2′-γGlu-Lauroyl])VVEGG-NH2 [SEQ ID NO: 456]
2. H[Aib]EGS[αMeF]TSDV[αMeS]SYK([PEG2′-PEG2′-γGlu-Lauroyl])EK([PEG2′-PEG2′-γGlu-Lauroyl])EAA[αMeK]EFIK([PEG2′-PEG2′-γGlu-Lauroyl])FVVEGG-NH2 [SEQ ID NO: 451]

Reply text:
1. 0.224
2. 0.158
